Test system: PANC-1 (Pac-1, human pancreatic cancer cells)
experiment summary: MTT cancer cell growth inhibition
Assay type: cell-based
details: Homo sapiens, PANC-1, 72 h, MTT, 72 hours incubation; read-out: GI50 PAN
Cut-off 60 nM on GI50: below means yes (1), at or above means no (0).

substance smiles	assay target	classification
C=C1NC(=O)c2cc(F)cc(n2)CNC(=O)C[C@@H](/C=C/CCS)OC(=O)[C@H](C(C)C)NC1=O	PANC-1 (Pac-1, human pancreatic cancer cells)	no (0)
C/C=C1\NC(=O)c2nc(ccc2F)CNC(=O)C[C@@H](/C=C/CCS)OC(=O)[C@H](CC)NC1=O	PANC-1 (Pac-1, human pancreatic cancer cells)	no (0)
C/C=C1\NC(=O)c2cc(F)cc(n2)CNC(=O)C[C@@H](/C=C/CCSC(=O)CCCCCCC)OC(=O)[C@H](C(C)C)NC1=O	PANC-1 (Pac-1, human pancreatic cancer cells)	yes (1)
C/C=C1\NC(=O)c2cc(F)cc(n2)CNC(=O)C[C@@H](/C=C/CCSC(=O)CCCC)OC(=O)[C@H](C(C)C)NC1=O	PANC-1 (Pac-1, human pancreatic cancer cells)	no (0)
C/C=C1\NC(=O)c2cc(F)cc(n2)CNC(=O)C[C@@H](/C=C/CCSC(=O)CC)OC(=O)[C@H](C(C)C)NC1=O	PANC-1 (Pac-1, human pancreatic cancer cells)	yes (1)

Would you kindly verify if GI50 of C/C=C1\NC(=O)c2cccc(n2)CNC(=O)C[C@@H](/C=C/CCS)OC(=O)[C@H](Cc2cccc3ccccc23)NC1=O is strictly less than 60 nM? yes (1)

Hello, I'm reviewing records and need to know if GI50 of C/C=C1\NC(=O)c2ccc(F)c(n2)CNC(=O)C[C@@H](/C=C/CCS)OC(=O)[C@H](Cc2ccc(O)cc2)NC1=O is below 60 nM. Could you check? yes (1)

Given the entry C/C=C1\NC(=O)c2ccc(F)c(n2)CNC(=O)C[C@@H](/C=C/CCSC(=O)CCCCCC)OC(=O)[C@H](C(C)C)NC1=O , would its reported GI50 be below 60 nM? yes (1)

Please indicate whether the reported GI50 of C=C1NC(=O)c2cccc(n2)CNC(=O)C[C@@H](/C=C/CCS)OC(=O)[C@H](C)NC1=O is strictly below 60 nM. no (0)

Quick check: GI50 of C/C=C1\NC(=O)c2cc(F)cc(n2)CNC(=O)C[C@@H](/C=C/CCS)OC(=O)[C@H](Cc2ccc(O)cc2)NC1=O under 60 nM? yes (1)

Consider the molecule C/C=C1\NC(=O)c2ccc(F)c(n2)CNC(=O)C[C@@H](/C=C/CCSC(C)=O)OC(=O)[C@H](Cc2ccc(O)cc2)NC1=O . Is its GI50 strictly less than 60 nM? no (0)

# TODO verify GI50 < 60 nM strictly for this molecule: C/C=C1\NC(=O)c2nc(ccc2F)CNC(=O)C[C@@H](/C=C/CCSC=O)OC(=O)[C@H](C(C)C)NC1=O no (0)

# check: GI50 < 60 nM for C/C=C1\NC(=O)c2nc(ccc2F)CNC(=O)C[C@@H](/C=C/CCSC(=O)CCCCCC)OC(=O)[C@H](C(C)C)NC1=O no (0)

Does C/C=C1\NC(=O)c2cccc(n2)CNC(=O)C[C@@H](/C=C/CCSC(C)=O)OC(=O)[C@H](C)NC1=O have GI50 strictly under 60 nM? no (0)

###

assay target: HDAC11 (Homo sapiens, UniProt Q96DB2)
Sequence (Q96DB2 1-347): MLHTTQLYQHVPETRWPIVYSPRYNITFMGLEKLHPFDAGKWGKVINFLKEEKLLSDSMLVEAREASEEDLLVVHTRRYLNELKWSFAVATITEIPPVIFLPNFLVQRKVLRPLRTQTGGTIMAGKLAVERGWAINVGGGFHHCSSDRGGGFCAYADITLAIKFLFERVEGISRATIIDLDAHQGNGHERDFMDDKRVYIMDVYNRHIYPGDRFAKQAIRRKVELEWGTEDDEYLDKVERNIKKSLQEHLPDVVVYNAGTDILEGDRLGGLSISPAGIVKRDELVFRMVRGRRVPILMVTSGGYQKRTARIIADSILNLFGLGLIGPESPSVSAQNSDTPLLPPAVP
experiment summary: HDAC biochemical activity measurement (fluorescent substrate deacetylation)
details: read-out: IC50 HDAC11; HDAC11; 37° C. 30 minutes
measurement type: IC50 (nM)
Answer in nM, number only, no unit symbol.

Solved cases below.
substance smiles	quantity unit	observed result
C=C1NC(=O)c2nc(ccc2F)CNC(=O)C[C@@H](/C=C/CCSC(C)=O)OC(=O)[C@H](C(C)C)NC1=O	nM	91
C/C=C1\NC(=O)c2nc(ccc2F)CNC(=O)C[C@@H](/C=C/CCSC(=O)CCCCC)OC(=O)[C@H](C(C)C)NC1=O	nM	85

Moving on to another molecule below.
Query IC50 for C/C=C1\NC(=O)c2cccc(n2)CNC(=O)C[C@@H](/C=C/CCSC(=O)CCCCCCC)OC(=O)[C@@H](C)NC1=O 72

###

Known GI50 of a selection of compounds
Tested on: A549 (human lung cancer cells)
experiment summary: MTT cancer cell growth inhibition
Format: cell-based
details: Homo sapiens, A549, 72 h, MTT, 72 hours incubation; read-out: GI50 A54

Previously resolved entries follow.
substance smiles	observed result
C/C=C1\NC(=O)c2ncc(F)c(n2)CNC(=O)C[C@@H](/C=C/CCSC(C)=O)OC(=O)[C@H](C)NC1=O	60 nM
C/C=C1\NC(=O)c2cc(F)cc(n2)CNC(=O)C[C@@H](/C=C/CCSC(=O)CC)OC(=O)[C@H](C(C)C)NC1=O	50 nM

Turning to the following compound.
Consider the compound C/C=C1\NC(=O)c2nc(ccc2F)CNC(=O)C[C@@H](/C=C/CCS)OC(=O)[C@H](C(C)C)NC1=O tested on A549 (human lung cancer cells); state its GI50. 60 nM

###

System: N-87 (human gastric cancer cells)
experiment summary: MTT cancer cell growth inhibition
Assay type: cell-based
details: Homo sapiens, 72 h, MTT, 72 hours incubation, N-87 cells; read-out: GI50 N-87
GI50 for assorted compounds
Please give a number only; it is taken to be in µM.

substance smiles	assay target	observed result
CC(=O)SCC/C=C/[C@@H]1CC(=O)NCc2nc(ccc2F)C(=O)NC(=C(C)C)C(=O)N[C@@H](C(C)C)C(=O)O1	N-87 (human gastric cancer cells)	0.013
C=C1NC(=O)c2cc(F)cc(n2)CNC(=O)C[C@@H](/C=C/CCSC(C)=O)OC(=O)[C@H](C(C)C)NC1=O	N-87 (human gastric cancer cells)	0.027
C=C1NC(=O)c2ccc(F)c(n2)CNC(=O)C[C@@H](/C=C/CCSC(C)=O)OC(=O)[C@H](C)NC1=O	N-87 (human gastric cancer cells)	0.015
C/C=C1\NC(=O)c2cc(F)cc(n2)CNC(=O)C[C@@H](/C=C/CCSC(=O)CCCCCCC)OC(=O)[C@H](C(C)C)NC1=O	N-87 (human gastric cancer cells)	0.052

Query compound follows.
Fill in GI50 for C/C=C1\NC(=O)c2nccc(n2)CNC(=O)C[C@@H](/C=C/CCS)OC(=O)[C@H](C(C)C)NC1=O tested with N-87 (human gastric cancer cells). 0.032

###

System: DU145 (human prostate cancer cells)
experiment summary: MTT cancer cell growth inhibition
Format: cell-based
details: Homo sapiens, DU-145, 72 h, DU145 cells, MTT, 72 hours incubation; read-out: GI50 Du1
GI50: recorded values
Respond numerically; units are nM and should not be typed.

Below are worked cases with known answers.
substance smiles	assay target	quantity unit	GI50
C/C=C1\NC(=O)c2cc(SC)cc(n2)CNC(=O)C[C@@H](/C=C/CCSC(C)=O)OC(=O)[C@H](Cc2ccc(O)cc2)NC1=O	DU145 (human prostate cancer cells)	nM	70
C/C=C1\NC(=O)c2nc(ccc2SC)CNC(=O)C[C@@H](/C=C/CCSC=O)OC(=O)[C@H](C(C)C)NC1=O	DU145 (human prostate cancer cells)	nM	50
C/C=C1\NC(=O)c2nc(ccc2SC)CNC(=O)C[C@@H](/C=C/CCS)OC(=O)[C@H](C)NC1=O	DU145 (human prostate cancer cells)	nM	50
C/C=C1\NC(=O)c2ccc(SC)c(n2)CNC(=O)C[C@@H](/C=C/CCSC(C)=O)OC(=O)[C@H](CCCCNC(=O)OCC2c3ccccc3-c3ccccc32)NC1=O	DU145 (human prostate cancer cells)	nM	50

Given C/C=C1\NC(=O)c2ccc(SC)c(n2)CNC(=O)C[C@@H](/C=C/CCSC(=O)CCCCCCC)OC(=O)[C@H](C)NC1=O , report its GI50 on DU145 (human prostate cancer cells). 50

###

assay target: UniProtKB Q9BY41
Sequence (Q9BY41 whole entry, species assumed): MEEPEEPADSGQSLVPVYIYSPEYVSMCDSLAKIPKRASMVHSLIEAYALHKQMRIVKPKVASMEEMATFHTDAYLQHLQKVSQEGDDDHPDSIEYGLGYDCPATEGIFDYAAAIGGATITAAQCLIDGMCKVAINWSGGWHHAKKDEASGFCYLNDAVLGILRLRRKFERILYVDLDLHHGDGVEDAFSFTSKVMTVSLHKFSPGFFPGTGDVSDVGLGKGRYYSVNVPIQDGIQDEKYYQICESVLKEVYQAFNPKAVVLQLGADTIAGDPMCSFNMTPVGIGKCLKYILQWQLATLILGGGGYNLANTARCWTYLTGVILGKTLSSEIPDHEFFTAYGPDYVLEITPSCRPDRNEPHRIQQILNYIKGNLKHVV
Hi! Just check whether IC50 is below 40 nM. Below gives Criterion met, equal or above gives Criterion not met.

Recorded results for 9 molecules are shown here.
substance smiles	assay target	classification
C/C=C1\NC(=O)c2cc(SC)cc(n2)CNC(=O)C[C@@H](/C=C/CCSC(C)=O)OC(=O)[C@H](CC)NC1=O	UniProtKB Q9BY41	Criterion met
C/C=C1\NC(=O)c2cc(SC)cc(n2)CNC(=O)C[C@@H](/C=C/CCSC=O)OC(=O)[C@H](C(C)C)NC1=O	UniProtKB Q9BY41	Criterion met
C/C=C1\NC(=O)c2cccc(n2)CNC(=O)C[C@@H](/C=C/CCS)OC(=O)[C@@H](C)NC1=O	UniProtKB Q9BY41	Criterion met
C/C=C1\NC(=O)c2nc(ccc2F)CNC(=O)C[C@@H](/C=C/CCSC(=O)CCCCC)OC(=O)[C@H](C(C)C)NC1=O	UniProtKB Q9BY41	Criterion met
CCCCCCCC(=O)SCC/C=C/[C@@H]1CC(=O)NCc2cccc(n2)C(=O)NCC(=O)N[C@@H](C(C)C)C(=O)O1	UniProtKB Q9BY41	Criterion not met
C/C=C1\NC(=O)c2cccc(n2)CNC(=O)C[C@@H](/C=C/CCSC(C)=O)OC(=O)[C@H](CCCCN)NC1=O	UniProtKB Q9BY41	Criterion not met
C/C=C1\NC(=O)c2cc(F)cc(n2)CNC(=O)C[C@@H](/C=C/CCSC(=O)CCC)OC(=O)[C@H](C(C)C)NC1=O	UniProtKB Q9BY41	Criterion not met
C=C1NC(=O)c2cccc(n2)CNC(=O)C[C@@H](/C=C/CCSC(C)=O)OC(=O)[C@H](C(C)C)NC1=O	UniProtKB Q9BY41	Criterion not met
C/C=C1\NC(=O)c2cccc(n2)CNC(=O)C[C@@H](/C=C/CCSC(C)=O)OC(=O)[C@H](Cc2cccc3ccccc23)NC1=O	UniProtKB Q9BY41	Criterion not met

Moving on to another molecule below.
Identify whether the molecule C/C=C1\NC(=O)c2ccc(F)c(n2)CNC(=O)C[C@@H](/C=C/CCSC=O)OC(=O)[C@H](C(C)C)NC1=O records IC50 below 40 nM. Criterion met

Just for reference, patent US10065990B2 is where these values come from.
